# testedOn: Ataxin-2 (Homo sapiens)
# procedureDetails: qHTS for Inhibitors of ATXN expression.
# Assay type: functional
Hit rate of the full screen: of about 400,000 compounds, about 2,100 (0.53%) were called active. Another 14% or so got no clear call; they are omitted. No rule for the calls is given here. This excerpt belongs to a sample that is enriched for actives.
Would you mind answering with one of these outcomes? active, inactive

Solved entries (count: 4):
>  <compoundString>
CCS(=O)(=O)c1nc(S(=O)(=O)c2ccc(C)cc2)c(N2CCN(C)CC2)s1

>  <assignedClass>
inactive

$$$$
>  <compoundString>
COc1ccc(/C=C/C(=O)NCC(=O)N/N=C/c2cccnc2)cc1

>  <assignedClass>
inactive

$$$$
>  <compoundString>
Cc1ccc(NC(=O)CSc2nc3nc(O)cc(O)c3s2)c(Br)c1

>  <assignedClass>
inactive

$$$$
>  <compoundString>
CCN1C(c2ccccc2)=C(c2ccccc2)S/C1=C\C=C1/SC(=S)N(C)C1=O

>  <assignedClass>
active

$$$$

Answer briefly: the call reported for `CC(=O)Oc1c(Cl)cc(Cl)cc1/C=C/c1ccc2ccccc2n1` in this assay.
inactive

Answer briefly: the call reported for `Cc1ccc(C(=O)NCCC(C)C)cc1NC(=O)c1nsc2ccccc12` in this assay.
active

Answer briefly: the call reported for `O=C(CSc1cccc2cccnc12)N/N=C/c1cccnc1` in this assay.
active

Answer briefly: the call reported for `Cc1cc(SCC(=O)Nc2cccnc2Cl)nc2ccccc12` in this assay.
inactive

Answer briefly: the call reported for `CCn1c(SCC(=O)Nc2cccc(C)c2)nc2nc3c(cc2c1=O)COC(C)(C)C3` in this assay.
inactive

Answer briefly: the call reported for `CN(C)C(=O)CCc1ccc2c3c([nH]c2c1)[C@]1(CCC2CCCC2)[C@@H](C(=O)N2CCOCC2)C[C@H](CC(=O)NCc2cccc(C(F)(F)F)c2)C(=O)N1CC3` in this assay.
active

----------
# testedOn: Ataxin-2 (Homo sapiens) (UniProt Q99700)
# Sequence (Q99700 whole entry): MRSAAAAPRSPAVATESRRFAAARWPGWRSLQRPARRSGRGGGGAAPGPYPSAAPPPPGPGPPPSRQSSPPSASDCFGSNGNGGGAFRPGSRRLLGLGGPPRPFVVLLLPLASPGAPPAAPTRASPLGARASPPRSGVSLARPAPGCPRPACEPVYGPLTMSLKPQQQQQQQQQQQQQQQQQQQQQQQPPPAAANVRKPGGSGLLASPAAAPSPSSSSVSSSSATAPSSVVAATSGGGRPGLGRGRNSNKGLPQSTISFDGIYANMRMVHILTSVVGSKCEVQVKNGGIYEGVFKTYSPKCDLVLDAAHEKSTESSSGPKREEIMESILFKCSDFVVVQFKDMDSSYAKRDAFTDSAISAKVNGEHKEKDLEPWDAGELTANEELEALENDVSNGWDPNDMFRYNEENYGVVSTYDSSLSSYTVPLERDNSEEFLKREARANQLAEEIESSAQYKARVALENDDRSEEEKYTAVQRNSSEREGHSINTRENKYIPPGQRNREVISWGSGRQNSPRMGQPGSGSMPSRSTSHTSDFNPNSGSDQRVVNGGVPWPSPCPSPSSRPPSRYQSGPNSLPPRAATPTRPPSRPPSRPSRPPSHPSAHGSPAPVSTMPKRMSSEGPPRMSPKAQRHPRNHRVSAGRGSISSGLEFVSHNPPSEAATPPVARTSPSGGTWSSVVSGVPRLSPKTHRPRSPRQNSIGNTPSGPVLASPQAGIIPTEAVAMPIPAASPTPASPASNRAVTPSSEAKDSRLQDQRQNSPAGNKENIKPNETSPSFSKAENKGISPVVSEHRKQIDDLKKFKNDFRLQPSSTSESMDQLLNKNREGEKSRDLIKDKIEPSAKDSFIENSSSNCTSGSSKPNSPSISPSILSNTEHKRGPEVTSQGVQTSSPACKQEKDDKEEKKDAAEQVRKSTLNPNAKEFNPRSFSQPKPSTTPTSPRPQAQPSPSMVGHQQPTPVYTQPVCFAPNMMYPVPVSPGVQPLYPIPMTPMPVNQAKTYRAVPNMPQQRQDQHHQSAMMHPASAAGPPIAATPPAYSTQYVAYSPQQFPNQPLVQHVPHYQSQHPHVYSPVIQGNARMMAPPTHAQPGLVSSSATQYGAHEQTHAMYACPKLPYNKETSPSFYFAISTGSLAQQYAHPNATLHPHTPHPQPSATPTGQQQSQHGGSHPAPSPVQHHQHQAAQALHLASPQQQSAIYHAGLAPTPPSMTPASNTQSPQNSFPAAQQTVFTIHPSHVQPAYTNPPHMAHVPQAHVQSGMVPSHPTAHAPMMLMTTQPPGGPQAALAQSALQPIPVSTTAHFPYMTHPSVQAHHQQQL
# procedureDetails: qHTS for Inhibitors of ATXN expression.
# Type: functional
In all, about 400,000 compounds went through this assay and about 2,100 (0.53%) were called active. Roughly 14% stayed inconclusive and do not appear here. The rule behind the calls is not given here. The sample as a whole holds a higher share of actives than the screen did.
Would you mind answering with one of these outcomes? t for active, f for inactive

Solved entries (count: 3):
>  <compound>
COc1ccc(CNC(=O)c2c(Nc3ccccc3C)sc(C(=O)c3ccccc3)c2N)cc1

>  <testedOn>
Ataxin-2 (Homo sapiens) (UniProt Q99700)

>  <assignedClass>
t

$$$$
>  <compound>
COc1ccccc1C(=O)N(Cc1cc2cc3c(cc2nc1N(C)C)OCO3)CC1CCCO1 (stereo unspecified)

>  <testedOn>
Ataxin-2 (Homo sapiens) (UniProt Q99700)

>  <assignedClass>
f

$$$$
>  <compound>
CN(C)c1ccc(/C=C/C(=O)c2ccc3c(c2)OCO3)cc1

>  <testedOn>
Ataxin-2 (Homo sapiens) (UniProt Q99700)

>  <assignedClass>
f

$$$$

Answer briefly: the call reported for `CCCN(CCC)CCCN=C(S)Nc1ccc2nc3n(c(=O)c2c1)CCCCC3` in this assay.
f

Answer briefly: the call reported for CC(C)(C)c1ccc(C(=O)CC(Sc2ccc(Cl)cc2)C(=O)O)cc1 (stereo unspecified) in this assay.
t

Answer briefly: the call reported for `O=C1OCCN1C(=O)[C@H]1[C@H](c2ccc(F)cc2)C(c2ccccc2)=NN1c1ccccc1` in this assay.
f

Answer briefly: the call reported for `O=C(Nc1ccc2nc3n(c(=O)c2c1)CCCCC3)c1c(F)ccc([N+](=O)[O-])c1F` in this assay.
t

Answer briefly: the call reported for `COc1cccc(OC)c1C(=O)Nc1ccc(Br)c(C(=O)c2ccccc2)c1` in this assay.
f

Answer briefly: the call reported for CC(=O)C1CCC2C3CC=C4CC(SC(=N)N)CCC4(C)C3CCC12C (stereo unspecified) in this assay.
t

Answer briefly: the call reported for `CC(=O)Nc1cccc(C(=O)/C=C/c2ccc(Br)cc2)c1` in this assay.
t

Answer briefly: the call reported for `COc1ccc(C(=O)c2sc3nc(-c4ccccc4)ccc3c2N)cc1` in this assay.
f

Answer briefly: the call reported for CC(CCc1ccco1)NC(=O)Cn1ncc2c(=O)oc3ccccc3c21 (stereo unspecified) in this assay.
f

Answer briefly: the call reported for `Cc1cccc(OC(=O)c2ccc3c(=O)n4c(nc3c2)CCC4)c1` in this assay.
f

Answer briefly: the call reported for `Cc1ccc(CNC(=O)c2c(Nc3c(C)cccc3C)sc(C(=O)c3ccccc3)c2N)cc1` in this assay.
t

Answer briefly: the call reported for `CCN(CC)S(=O)(=O)c1ccc(NC(=O)c2ccc3c(=O)n4c(nc3c2)CCCCC4)cc1` in this assay.
t

Answer briefly: the call reported for NC(Cc1ccc(F)cc1)c1csc(Nc2nccc(C(F)(F)F)n2)n1 (stereo unspecified) in this assay.
t

Answer briefly: the call reported for CCOC(=O)C1=C(C)OC(N)=C(C#N)C1c1cccs1 (stereo unspecified) in this assay.
f

----------
# testedOn: Ataxin-2 (Homo sapiens) (UniProt Q99700)
# procedureDetails: qHTS for Inhibitors of ATXN expression.
# Assay type: functional
About 2,100 (0.53%) of roughly 400,000 compounds were called active. Not shown: some 14% with an inconclusive outcome. No rule for the calls is given here. This is one part of a sample in which actives are shown more often than they occur.
Would you mind answering with one of these outcomes? y = active, n = inactive

Solved entries (count: 3):
>  <molecule>
CCCCCC(=O)Nc1ncc2c(n1)CC(c1cccs1)CC2=O (stereo unspecified)

>  <assignedClass>
n

$$$$
>  <molecule>
CC(=O)N1CCN(Cc2nc(O)c3c(-c4ccccc4)csc3n2)CC1

>  <assignedClass>
n

$$$$
>  <molecule>
Cc1cccc2c3c([nH]c12)CCNC3

>  <assignedClass>
n

$$$$

Answer briefly: the call reported for `C=C1C(=O)[C@]23C[C@H]1CC[C@H]2[C@]1(C)[C@@H](O)CC[C@@](C)(C(=O)O)[C@H]1C[C@@H]3O` in this assay.
y

Answer briefly: the call reported for `COc1ccccc1OCCn1c(C)c(C=O)c2ccccc21` in this assay.
n

Answer briefly: the call reported for `COc1cccc2c1cc1c(=O)n(CC(=O)NCCCN3CCN(C)CC3)nc(C)n12` in this assay.
n

----------
# testedOn: Ataxin-2 (Homo sapiens)
# procedureDetails: qHTS for Inhibitors of ATXN expression.
# Type: functional
Among all 400,000 compounds or so, about 2,100 (0.53%) were called active. Inconclusive results (about 14%) are left out. No rule for the calls is given here. The sample holds actives, similar compounds and a random draw of the others, so the mix is not that of the screen.
Would you mind answering with one of these outcomes? active, inactive

Solved entries (count: 3):
>  <compound>
O=C(NCCNc1ccc([N+](=O)[O-])cc1)c1cccc(Br)c1

>  <assignedClass>
inactive

$$$$
>  <compound>
O=C(COC(=O)/C=C/c1ccc(Br)o1)NC1CCCCC1

>  <assignedClass>
inactive

$$$$
>  <compound>
C(=NOCc1ccccc1)c1ccccn1

>  <assignedClass>
inactive

$$$$

Next compound, please.
Answer briefly: the call reported for CC1C/C(=C\c2cccnc2)C(=O)/C(=C/c2cccnc2)C1 (stereo not drawn) in this assay.
active

----------
# testedOn: Ataxin-2 (Homo sapiens) (UniProt Q99700)
# procedureDetails: qHTS for Inhibitors of ATXN expression.
# Format: functional
Out of some 400,000 compounds screened, about 2,100 (0.53%) were called active. Inconclusive results (about 14%) are left out. Shown is part of a subset that was picked to be rich in actives.
measuredProperty: Potency

>  <compound>
O=C(CCS(=O)(=O)c1ccccc1)N(CCCN1CCOCC1)c1nc2c(F)cccc2s1

>  <Potency>
31.6 µM (active)

$$$$
>  <compound>
O=C(CCS(=O)(=O)c1ccccc1)N(CCCN1CCOCC1)c1nc2ccccc2s1

>  <Potency>
39.8 µM (active)

$$$$
>  <compound>
O=C(CCS(=O)(=O)c1ccccc1)N(CCCN1CCOCC1)c1nc2ccc(F)cc2s1

>  <Potency>
25.1 µM (active)

$$$$
>  <compound>
Nc1c(C(=O)NCCN2CCOCC2)c2nc3ccccc3nc2n1-c1cccc(F)c1

>  <Potency>
inactive

$$$$
>  <compound>
Nc1c(C(=O)NCCN2CCOCC2)c2nc3ccccc3nc2n1-c1ccccc1

>  <Potency>
inactive

$$$$

Report Potency on Ataxin-2 (Homo sapiens) (UniProt Q99700) for this entry: OC(CNCCC1C=Nc2ccccc21)Cn1c2ccc(Cl)cc2c2cc(Cl)ccc21 (stereo not given)
35.5 µM (active)

Report Potency on Ataxin-2 (Homo sapiens) (UniProt Q99700) for this entry: `COc1ccc(-c2c(C)c3ccc(O)c(CN4CCCC4)c3oc2=O)cc1OC`
inactive

Report Potency on Ataxin-2 (Homo sapiens) (UniProt Q99700) for this entry: `Cc1cccc2sc(N(CCN3CCOCC3)C(=O)CCS(=O)(=O)c3ccccc3)nc12`
39.8 µM (active)

Report Potency on Ataxin-2 (Homo sapiens) (UniProt Q99700) for this entry: CCC(C)N1C(=O)S/C(=C/c2ccc(N3CCOCC3)cc2C)C1=O (stereo not given)
inactive

Report Potency on Ataxin-2 (Homo sapiens) (UniProt Q99700) for this entry: CC(Oc1ccccc1F)c1nnc(SCC(=O)N(c2ccccc2)C2CCS(=O)(=O)C2)o1 (stereo not given)
inactive

src = ChEMBL document CHEMBL1201862
